Entries and their pIC50 values follow.
Molecular target: Leucyl-tRNA synthetase (LeuRS) (Escherichia coli (strain K12))
Experiment: Leucyl-tRNA synthetase enzyme inhibition (AMP-Glo; single point % inhibition at 100 μM and IC50)
Format: biochemical
Details: E. coli LeuRS; read-out: Enzyme Inhibition - IC50, E. coli LeuRS
Structures can show the parent of a compound that is named as a salt.
Reminder that pIC50 means the negative base-10 logarithm of the concentration expressed in mol/L.

Some compounds with known pIC50 results, for comparison:
{"compound": "CC(C)C[C@H](N)C(=O)N=[S@@](N)(=O)c1cccc(Br)c1", "pIC50": 5.67}
{"compound": "CC(C)C[C@H](N)C(=O)N=[S@@](N)(=O)c1cccc2ccccc12", "pIC50": 5.25}
{"compound": "COc1cccc(S(N)(=O)=NC(=O)[C@@H](N)CC(C)C)c1 (stereo partly drawn)", "pIC50": 6.41}

Reported pIC50 ( Cc1csc(S(N)(=O)=NC(=O)[C@@H](N)CC(C)C)n1 (stereo partly drawn) [ANASIA-004, hydrochloride] ) = 7.04

Reported pIC50 ( `CC(C)C[C@H](N)C(=O)N=[S@@](N)(=O)c1csc2ccsc12` ) = 6.02

Reported pIC50 ( CC(C)C[C@H](N)C(=O)N=S(N)(=O)c1cc(F)c(F)s1 (stereo partly drawn) ) = 6.65

Reported pIC50 ( CC(C)C[C@H](N)C(=O)N=S(N)(=O)c1ccc(F)s1 (stereo partly drawn) ) = 6.76

Reported pIC50 ( CC(C)C[C@H](N)C(=O)N=S(N)(=O)c1cccc(Cl)c1 (stereo partly drawn) ) = 6.96

Reported pIC50 ( `CC(C)C[C@H](N)C(=O)N=[S@@](N)(=O)c1cccc(-c2ccccc2)c1` ) = 5.53

Reported pIC50 ( `COc1ccsc1[S@](N)(=O)=NC(=O)[C@@H](N)CC(C)C` ) = 5.37

Reported pIC50 ( CC(C)C[C@H](N)C(=O)N=S(N)(=O)c1ccc2ccccc2c1 (stereo partly drawn) ) = 5.45

Reported pIC50 ( CC(C)C[C@H](N)C(=O)N=S(N)(=O)c1cscc1C#N (stereo partly drawn) ) = 6.15

====

Molecular target: Leucyl-tRNA synthetase (LeuRS) (Escherichia coli (strain K12))
Experiment: Leucyl-tRNA synthetase enzyme inhibition (AMP-Glo; single point % inhibition at 100 μM and IC50)
Format: biochemical
measuredAttribute: log10 IC50 (log10 of the value in nM)
Answers are given as log10 of IC50 in nM.

{"molecule": "Cc1csc([S@@](N)(=O)=NC(=O)[C@@H](N)CC(C)C)c1.Cl [ANASIA-095-1]", "measuredResult": 1.46}

Reported log10 IC50 ( CC(C)C[C@H](N)C(=O)N=[S@](N)(=O)c1cc(Cl)c(Cl)s1.Cl [ANASIA-121-1] ) = 1.62

Reported log10 IC50 ( CC(C)C[C@H](N)C(=O)N=[S@](N)(=O)c1cccc(Cl)c1Cl.Cl [ANASIA-046-1] ) = 2.98

====

Test system: bacteria (ATCC reference strains)
Test: Antibacterial activity, MIC by broth micro-dilution (CLSI)
Details: Escherichia coli, BAA2469, read-out: Antibacterial Activity (MIC), G = E. coli BAA-2469
I'd appreciate it if you could label each record using MIC and these ranges: bottom (below 8 µg/mL), middle (8 µg/mL to below 30 µg/mL), top (30 µg/mL or more)

Use these answered entries as a reference point.
{"compound": "CC(C)C[C@H](N)C(=O)N=[S@](N)(=O)c1sccc1Cl.Cl [ANASIA-012-1]", "group": "middle"}
{"compound": "CC(C)C[C@H](N)C(=O)N=[S@](N)(=O)c1cccc(C#N)c1.Cl [ANASIA-041-1]", "group": "top"}
{"compound": "COc1ccsc1[S@@](N)(=O)=NC(=O)[C@@H](N)CC(C)C.Cl [ANASIA-108-1]", "group": "middle"}
{"compound": "CC(C)C[C@H](N)C(=O)N=S(N)(=O)c1sccc1Cl (stereo partly drawn) [ANASIA-012]", "group": "top"}
{"compound": "CC(C)C[C@H](N)C(=O)N=S(N)(=O)c1csc(Cl)c1 (stereo partly drawn) [ANASIA-099]", "group": "bottom"}
{"compound": "CC(C)C[C@H](N)C(=O)N=[S@](N)(=O)c1cccc(OC(F)F)c1.Cl [ANASIA-088-1]", "group": "top"}
{"compound": "CC(C)C[C@H](N)C(=O)N=S(N)(=O)c1sccc1-c1ccccc1 (stereo partly drawn) [ANASIA-068]", "group": "top"}
{"compound": "Cc1sccc1[S@@](N)(=O)=NC(=O)[C@@H](N)CC(C)C.Cl [ANASIA-091-1]", "group": "top"}
{"compound": "CC(C)C[C@H](N)C(=O)N=S(N)(=O)c1sccc1F (stereo partly drawn) [ANASIA-070]", "group": "top"}
{"compound": "Cc1cccc([S@](N)(=O)=NC(=O)[C@@H](N)CC(C)C)c1 [ANASIA-005-2]", "group": "top"}

Query: Hi, small favor: classify Cc1csc([S@@](N)(=O)=NC[C@@H](N)CC(C)C)n1 [ANASIA-004-1] by its MIC when you get a moment.
Reply: top

Query: Hi, small favor: classify CC(C)C[C@H](N)C(=O)N=[S@](N)(=O)c1csc(Cl)c1Cl.Cl [ANASIA-125-1] by its MIC when you get a moment.
Reply: top

====

Biological target: Isoleucyl-tRNA synthetase (IleRS) (Escherichia coli (strain K12), UniProt P00956)
Sequence (P00956 whole entry, looked up): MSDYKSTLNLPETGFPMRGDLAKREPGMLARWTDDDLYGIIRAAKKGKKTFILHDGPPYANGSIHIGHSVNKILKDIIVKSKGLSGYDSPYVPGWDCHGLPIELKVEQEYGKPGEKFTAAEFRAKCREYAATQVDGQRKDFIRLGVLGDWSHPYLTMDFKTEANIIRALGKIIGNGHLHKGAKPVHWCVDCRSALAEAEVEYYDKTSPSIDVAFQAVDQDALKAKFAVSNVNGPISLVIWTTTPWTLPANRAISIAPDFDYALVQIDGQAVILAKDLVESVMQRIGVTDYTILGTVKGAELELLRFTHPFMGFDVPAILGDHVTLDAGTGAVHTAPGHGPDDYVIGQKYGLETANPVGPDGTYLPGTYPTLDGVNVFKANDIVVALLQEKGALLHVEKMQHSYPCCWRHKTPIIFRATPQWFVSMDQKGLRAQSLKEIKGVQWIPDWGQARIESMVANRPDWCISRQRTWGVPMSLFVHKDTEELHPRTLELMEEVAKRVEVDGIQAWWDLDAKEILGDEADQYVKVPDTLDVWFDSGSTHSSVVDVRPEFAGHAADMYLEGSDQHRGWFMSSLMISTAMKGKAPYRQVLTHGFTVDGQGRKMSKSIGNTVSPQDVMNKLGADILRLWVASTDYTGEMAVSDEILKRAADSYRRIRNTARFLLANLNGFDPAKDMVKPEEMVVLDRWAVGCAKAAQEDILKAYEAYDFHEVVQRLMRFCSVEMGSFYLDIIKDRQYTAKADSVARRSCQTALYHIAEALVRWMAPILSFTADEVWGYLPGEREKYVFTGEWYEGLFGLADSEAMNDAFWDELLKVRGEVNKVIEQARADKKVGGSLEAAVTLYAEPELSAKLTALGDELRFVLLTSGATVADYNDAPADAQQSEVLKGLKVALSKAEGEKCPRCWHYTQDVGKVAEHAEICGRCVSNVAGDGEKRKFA
Assay: Isoleucyl-tRNA synthetase enzyme inhibition (AMP-Glo; single point % inhibition at 100 μM and IC50)
Type: biochemical
Conditions: E. coli IleRS; read-out: Enzyme Inhibition - IC50, E. coli IleRS
measuredAttribute: IC50
Express your answer as a number followed by its unit.

Some molecules with known IC50 results, for comparison:
{"molecule": "CC[C@H](C)[C@H](N)C(=O)N=[S@](N)(=O)c1ccc(OC)cc1", "IC50": "35.1 µM"}
{"molecule": "CC[C@H](C)[C@H](N)C(=O)N=[S@@](N)(=O)c1cccc(OC(F)F)c1", "IC50": "13.7 µM"}
{"molecule": "CC[C@H](C)[C@H](N)C(=O)N=[S@](N)(=O)c1scc(Br)c1Br", "IC50": "3.83 µM"}

Reported IC50 ( `CC[C@H](C)[C@H](N)C(=O)N=[S@@](N)(=O)c1ccc(Cl)cc1.Cl` ) = 4.65 µM

Reported IC50 ( `CC[C@H](C)[C@H](N)C(=O)N=[S@](N)(=O)c1cccc(Cl)c1` ) = 67.6 µM

Reported IC50 ( CC[C@H](C)[C@H](N)C(=O)N=S(N)(=O)c1nc(Cl)cs1 (some centres unmarked) ) = 58.6 µM

Reported IC50 ( `CC[C@H](C)[C@H](N)C(=O)N=[S@](N)(=O)c1cscc1C` ) = 19.8 µM

Reported IC50 ( CC[C@H](C)[C@H](N)C(=O)N=S(N)(=O)c1ccc(C(F)F)s1 (some centres unmarked) ) = 15.8 µM

====

Entries and their IC50 values follow.
Target: Leucyl-tRNA synthetase (LeuRS) (Escherichia coli (strain K12), UniProt P07813)
Sequence (P07813 whole entry, looked up): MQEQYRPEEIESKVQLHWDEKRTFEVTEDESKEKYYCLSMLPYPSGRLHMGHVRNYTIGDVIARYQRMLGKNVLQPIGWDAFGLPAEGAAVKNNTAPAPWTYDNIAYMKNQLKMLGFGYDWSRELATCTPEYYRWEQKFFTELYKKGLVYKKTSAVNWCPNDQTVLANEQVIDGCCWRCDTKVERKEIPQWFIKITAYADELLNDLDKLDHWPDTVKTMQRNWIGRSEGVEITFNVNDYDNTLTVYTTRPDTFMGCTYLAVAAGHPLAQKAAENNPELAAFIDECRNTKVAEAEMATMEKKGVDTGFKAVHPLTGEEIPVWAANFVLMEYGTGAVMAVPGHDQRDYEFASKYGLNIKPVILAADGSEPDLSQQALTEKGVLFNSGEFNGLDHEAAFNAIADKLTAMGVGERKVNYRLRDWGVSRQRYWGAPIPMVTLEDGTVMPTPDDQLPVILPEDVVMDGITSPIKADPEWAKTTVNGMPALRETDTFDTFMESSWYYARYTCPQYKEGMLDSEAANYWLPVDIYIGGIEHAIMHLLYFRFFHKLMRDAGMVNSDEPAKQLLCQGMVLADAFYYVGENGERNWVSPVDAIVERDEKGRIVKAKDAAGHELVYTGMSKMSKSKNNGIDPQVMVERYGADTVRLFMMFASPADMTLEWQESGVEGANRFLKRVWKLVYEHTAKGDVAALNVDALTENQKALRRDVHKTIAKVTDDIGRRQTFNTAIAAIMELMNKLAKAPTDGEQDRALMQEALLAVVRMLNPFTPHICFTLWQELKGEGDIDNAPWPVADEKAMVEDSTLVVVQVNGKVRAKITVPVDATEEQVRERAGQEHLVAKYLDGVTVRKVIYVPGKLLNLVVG
Assay: Leucyl-tRNA synthetase enzyme inhibition (AMP-Glo; single point % inhibition at 100 μM and IC50)
Format: biochemical
Settings: E. coli LeuRS; read-out: Enzyme Inhibition - IC50, E. coli LeuRS
Number in µM, nothing else.

{"compound": "CC(C)C[C@H](N)C(=O)N=[S@@](N)(=O)c1csc(Cl)c1Cl [ANASIA-125-2]", "measuredResult": 1.93}
{"compound": "CC(C)C[C@H](N)C(=O)N=[S@@](N)(=O)c1cccc(Cl)c1.Cl [ANASIA-002-2]", "measuredResult": 1.05}
{"compound": "Cc1csc([S@](N)(=O)=NC(=O)[C@@H](N)CC(C)C)c1 [ANASIA-095-2]", "measuredResult": 1.89}

Item: Cc1cc([S@](N)(=O)=NC(=O)[C@@H](N)CC(C)C)cs1 [ANASIA-098-2] | System: Leucyl-tRNA synthetase (LeuRS) (Escherichia coli (strain K12), UniProt P07813) | IC50: 5.14

Item: CC(C)C[C@H](N)C(=O)N=[S@@](N)(=O)c1cccc(C#N)c1 [ANASIA-041-2] | System: Leucyl-tRNA synthetase (LeuRS) (Escherichia coli (strain K12), UniProt P07813) | IC50: 0.832

====

System: bacteria (ATCC reference strains)
Assay: Antibacterial activity, MIC by broth micro-dilution (CLSI)
Conditions: Enterobacter cloacae, read-out: Antibacterial Activity (MIC), B = Enterobacter cloacae B1966
measuredAttribute: MIC

Some compounds with known MIC results, for comparison:
{"compound": "CC(C)C[C@H](N)C(=O)N=S(N)(=O)c1ccsc1 (some centres unmarked)", "subjectOfTest": "bacteria (ATCC reference strains)", "measuredAttribute": "MIC", "measuredResult": "16 µg/mL"}
{"compound": "CC(C)C[C@H](N)C(=O)N=S(N)(=O)c1ccc(C(F)F)s1 (some centres unmarked)", "subjectOfTest": "bacteria (ATCC reference strains)", "measuredAttribute": "MIC", "measuredResult": "> 64 µg/mL"}
{"compound": "CC[C@H](C)[C@H](N)C(=O)N=S(N)(=O)c1ccc(C)s1 (some centres unmarked)", "subjectOfTest": "bacteria (ATCC reference strains)", "measuredAttribute": "MIC", "measuredResult": "> 64 µg/mL"}
{"compound": "CC(C)C[C@H](N)C(=O)N=[S@](N)(=O)c1cccc(C(C)C)c1.Cl", "subjectOfTest": "bacteria (ATCC reference strains)", "measuredAttribute": "MIC", "measuredResult": "> 64 µg/mL"}

Note: attention shifts to another entry.
Reported MIC ( `CC(C)C[C@H](N)C(=O)N=[S@](N)(=O)c1cccc(Cl)c1F.Cl` ) = > 64 µg/mL
